Target: T1, SNTB2, Q13425
T1 sequence (Q13425 110-208, limits assumed, looked up): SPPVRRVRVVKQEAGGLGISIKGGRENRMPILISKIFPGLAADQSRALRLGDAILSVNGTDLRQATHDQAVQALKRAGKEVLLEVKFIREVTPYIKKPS
Test: holdup assay
Parameters: key: below the threshold = too weak to quantify, mostly under pKd 3.1 to 4
Conditions: plain residues with an end cap or a label only (N-terminal biotin on a linker: ttds)
pKd by entry:
In your answer, state the number alone without any accompanying words.

• RLPKIKETTV [FRMPD4, Q14CM0] = 5.36
• RLQRRRETQV [HPV18-E6, P06463] = 4.58

Query :: Quick one: pKd of SGSRPSATVV [HPV73-E6, Q82005] ?
Result :: 4.13

Query :: Quick one: pKd of RHTTSTETAV [HPV30-E6, P36809] ?
Result :: 4.68

Query :: Quick one: pKd of SSLQSLETSV [ATP2B4, P23634] ?
Result :: 4.87
